# STUDY_TARGET: UniProtKB P48443
# Sequence (P48443 whole entry, the tested form may be a part): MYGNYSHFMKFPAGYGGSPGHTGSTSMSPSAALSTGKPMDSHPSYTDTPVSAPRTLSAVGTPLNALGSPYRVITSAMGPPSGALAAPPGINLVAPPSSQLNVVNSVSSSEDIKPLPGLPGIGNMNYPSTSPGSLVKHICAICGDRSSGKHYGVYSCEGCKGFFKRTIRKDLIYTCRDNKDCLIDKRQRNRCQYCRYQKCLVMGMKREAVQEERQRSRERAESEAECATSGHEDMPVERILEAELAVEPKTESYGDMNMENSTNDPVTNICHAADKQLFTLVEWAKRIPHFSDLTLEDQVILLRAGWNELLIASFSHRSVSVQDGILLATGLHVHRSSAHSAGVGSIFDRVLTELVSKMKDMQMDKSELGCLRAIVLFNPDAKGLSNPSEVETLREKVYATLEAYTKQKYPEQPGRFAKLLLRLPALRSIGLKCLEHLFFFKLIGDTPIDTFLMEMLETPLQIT
# TEST_METHOD_NOTES: Agonist activity at Gal4-LBD fused RXRgamma (unknown origin) expressed in HEK293T cells after 14 to 16 hrs by dual-Glo luciferase assay
pEC50: −log10 of the molar value.
MEASURED_PARAMETER: pEC50

Answered cases to consult:
STRUCTURE_STRING	MEASURED_PARAMETER	VALUE
Cc1cc(-c2cc(C(F)(F)F)cc(C(F)(F)F)c2)ccc1CC(=O)O	pEC50	6.00
CC(C)(C)c1cc(-c2ccc(CC(=O)O)cc2)cc(C(C)(C)C)c1	pEC50	5.48
O=C(O)c1ccc(-c2cc(C(F)(F)F)cc(C(F)(F)F)c2)cc1	pEC50	4.90
O=C(O)Cc1ccc(-c2cc(C(F)(F)F)cc(C(F)(F)F)c2)cc1	pEC50	6.66

P. CC(C)c1cccc(-c2ccc(C(=O)O)cc2)c1
Q. CC(C)(C)c1cc(-c2ccc(CCC(=O)O)cc2)cc(C(C)(C)C)c1
Lab note: check whether P or Q has the lower measured pEC50. Select an item and report its label.
P

###

# STUDY_TARGET: Retinoic acid receptor RXR-beta (Homo sapiens, UniProt P28702)
# TEST_METHOD_NOTES: Agonist activity at Gal4-LBD fused RXRbeta (unknown origin) expressed in HEK293T cells after 14 to 16 hrs by dual-Glo luciferase assay
MEASURED_PARAMETER: EC50 (µM)

Below: 2 molecules and their reported EC50.
STRUCTURE_STRING	STUDY_TARGET	UNIT_TEXT	VALUE
Cc1cc(-c2cc(C(C)(C)C)cc(C(C)(C)C)c2)ccc1CC(=O)O	Retinoic acid receptor RXR-beta (Homo sapiens, UniProt P28702)	µM	7
O=C(O)c1ccc(-c2cc(Cl)cc(Cl)c2)cc1	Retinoic acid receptor RXR-beta (Homo sapiens, UniProt P28702)	µM	13

a. Cc1cc(C)cc(-c2ccc(C(=O)O)cc2)c1
b. Cc1cc(-c2cc(C(F)(F)F)cc(C(F)(F)F)c2)ccc1C(=O)O
c. CC(C)(C)c1cccc(-c2ccc(C(=O)O)cc2)c1
d. CC(C)(C)c1cc(-c2ccc(CCC(=O)O)cc2)cc(C(C)(C)C)c1
Would you mind ranking these molecules by ascending EC50? Answer format: the labels, ordered as requested.
d, b, c, a

###

# STUDY_TARGET: UniProt P19793
# TEST_METHOD_NOTES: Agonist activity at Gal4-LBD fused RXRalpha (unknown origin) expressed in HEK293T cells assessed as fold activation after 14 to 16 hrs by dual-Glo luciferase assay relative to untreated control
# Type: cell-based
MEASURED_PARAMETER: fold change (FC)

Here's what some known entries look like.
STRUCTURE_STRING	fold change (FC)
CC(C)(C)c1cc(-c2cccc(C(=O)O)c2)cc(C(C)(C)C)c1	31
O=C(O)c1ccc(-c2cc(C(F)(F)F)cc(C(F)(F)F)c2)cc1	50
CC(C)Oc1cccc(-c2ccc(C(=O)O)cc2)c1	18
CCc1cc(CC)cc(-c2ccc(C(=O)O)cc2)c1	11
COc1cc(OC)cc(-c2ccc(C(=O)O)cc2)c1	4.8

I. CC(C)(C)c1cccc(-c2ccc(C(=O)O)cc2)c1
II. CC(C)c1cccc(-c2ccc(C(=O)O)cc2)c1
Of I versus II , which is the one with smaller reported fold change (FC)? Provide the label of your selected option as the answer.
I

###

# STUDY_TARGET: Retinoic acid receptor RXR-alpha (Homo sapiens)
# Sequence (P19793 whole entry, the tested form may be a part): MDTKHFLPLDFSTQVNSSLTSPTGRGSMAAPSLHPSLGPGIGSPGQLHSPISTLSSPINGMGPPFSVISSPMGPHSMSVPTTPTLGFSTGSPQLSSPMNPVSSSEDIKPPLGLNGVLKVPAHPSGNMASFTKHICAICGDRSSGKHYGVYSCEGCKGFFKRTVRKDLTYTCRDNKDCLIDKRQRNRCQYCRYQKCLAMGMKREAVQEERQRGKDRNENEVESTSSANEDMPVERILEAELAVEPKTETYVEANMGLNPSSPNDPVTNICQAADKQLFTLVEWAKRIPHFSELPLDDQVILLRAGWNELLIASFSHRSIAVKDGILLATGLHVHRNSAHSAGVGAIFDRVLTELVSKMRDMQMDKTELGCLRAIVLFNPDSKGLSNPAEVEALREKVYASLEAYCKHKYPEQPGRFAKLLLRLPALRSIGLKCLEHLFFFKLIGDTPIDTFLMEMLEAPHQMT
# TEST_METHOD_NOTES: Agonist activity at Gal4-LBD fused RXRalpha (unknown origin) expressed in HEK293T cells after 14 to 16 hrs by dual-Glo luciferase assay
# Assay type: cell-based
pEC50: −log10 of the molar value.
MEASURED_PARAMETER: pEC50

For orientation, consider the following solved cases.
STRUCTURE_STRING	STUDY_TARGET	pEC50
Cc1cc(-c2ccc(C(=O)O)cc2)cc(C(C)(C)C)c1	Retinoic acid receptor RXR-alpha (Homo sapiens)	5.10
Cc1cc(-c2cc(C(F)(F)F)cc(C(F)(F)F)c2)ccc1C(=O)O	Retinoic acid receptor RXR-alpha (Homo sapiens)	5.04

P. Cc1cc(-c2cc(C(C)(C)C)cc(C(C)(C)C)c2)ccc1CC(=O)O
Q. CC(C)Oc1cccc(-c2ccc(C(=O)O)cc2)c1
R. CC(C)(C)c1cccc(-c2ccc(C(=O)O)cc2)c1
S. O=C(O)Cc1ccc(-c2cc(C(F)(F)F)cc(C(F)(F)F)c2)cc1
Sort the compounds on pEC50; start with the lowest figure. Answer by listing the labels in the requested order.
R, Q, P, S

###

# STUDY_TARGET: Retinoic acid receptor RXR-beta (Homo sapiens, UniProt P28702)
# TEST_METHOD_NOTES: Agonist activity at Gal4-LBD fused RXRbeta (unknown origin) expressed in HEK293T cells after 14 to 16 hrs by dual-Glo luciferase assay
# Format: cell-based
MEASURED_PARAMETER: EC50 (µM)

STRUCTURE_STRING	UNIT_TEXT	EC50
O=C(O)c1cccc(-c2cc(Cl)cc(Cl)c2)c1	µM	13.1
CC(C)(C)c1cc(-c2cccc(C(=O)O)c2)cc(C(C)(C)C)c1	µM	3.1

P. CCOc1cccc(-c2ccc(C(=O)O)cc2)c1
Q. Cc1cc(-c2cc(C(F)(F)F)cc(C(F)(F)F)c2)ccc1CC(=O)O
R. O=C(O)Cc1ccc(-c2cc(C(F)(F)F)cc(C(F)(F)F)c2)cc1
S. Cc1cc(-c2ccc(C(=O)O)cc2)cc(C(C)(C)C)c1
Descending sort on EC50 required. Would you mind listing the labels in the order asked for?
P, S, Q, R

###

# STUDY_TARGET: Retinoic acid receptor RXR-beta (Homo sapiens) (UniProt P28702)
# Sequence (whole entry): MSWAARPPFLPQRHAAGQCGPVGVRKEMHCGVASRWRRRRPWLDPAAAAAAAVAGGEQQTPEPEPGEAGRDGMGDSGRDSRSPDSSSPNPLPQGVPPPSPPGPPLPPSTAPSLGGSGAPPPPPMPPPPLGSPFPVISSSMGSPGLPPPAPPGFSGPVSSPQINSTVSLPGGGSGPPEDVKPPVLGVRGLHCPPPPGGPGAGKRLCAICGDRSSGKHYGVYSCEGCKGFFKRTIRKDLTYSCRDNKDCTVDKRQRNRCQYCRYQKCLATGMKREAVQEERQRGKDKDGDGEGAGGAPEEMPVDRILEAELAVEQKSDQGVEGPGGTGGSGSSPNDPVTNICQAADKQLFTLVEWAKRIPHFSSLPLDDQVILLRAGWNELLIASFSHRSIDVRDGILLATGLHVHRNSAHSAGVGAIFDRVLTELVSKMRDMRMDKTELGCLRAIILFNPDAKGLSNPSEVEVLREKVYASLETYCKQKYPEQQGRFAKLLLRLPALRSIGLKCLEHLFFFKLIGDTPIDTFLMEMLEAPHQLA
# TEST_METHOD_NOTES: Agonist activity at Gal4-LBD fused RXRbeta (unknown origin) expressed in HEK293T cells assessed as fold activation after 14 to 16 hrs by dual-Glo luciferase assay relative to untreated control
# Type: cell-based
MEASURED_PARAMETER: fold change (FC)

STRUCTURE_STRING	VALUE
CC(C)(C)c1cccc(-c2ccc(C(=O)O)cc2)c1	35

a. O=C(O)c1ccc(-c2cc(C(F)(F)F)cc(C(F)(F)F)c2)cc1
b. CCOc1cccc(-c2ccc(C(=O)O)cc2)c1
c. CC(C)(C)c1cc(-c2cccc(C(=O)O)c2)cc(C(C)(C)C)c1
d. CCc1cc(CC)cc(-c2ccc(C(=O)O)cc2)c1
e. CC(C)Oc1cccc(-c2ccc(C(=O)O)cc2)c1
Arrange the 5 compounds by rising fold change (FC), starting with the smallest. Give the order by naming the labels one after another as requested.
b, e, d, c, a

###

# STUDY_TARGET: Retinoic acid receptor RXR-beta (Homo sapiens)
# TEST_METHOD_NOTES: Agonist activity at Gal4-LBD fused RXRbeta (unknown origin) expressed in HEK293T cells assessed as fold activation after 14 to 16 hrs by dual-Glo luciferase assay relative to untreated control
# Assay type: cell-based
MEASURED_PARAMETER: fold change (FC)

I. Cc1cc(C)cc(-c2ccc(C(=O)O)cc2)c1
II. Cc1cc(-c2cc(C(C)(C)C)cc(C(C)(C)C)c2)ccc1CC(=O)O
III. CC(C)c1cccc(-c2ccc(C(=O)O)cc2)c1
Reorder the list: decreasing fold change (FC). # list labels per requested ordering
I, III, II
(I: 97, III: 65, II: 28)

P. CC(C)(C)c1cc(-c2ccc(CCC(=O)O)cc2)cc(C(C)(C)C)c1
Q. Cc1cc(-c2cc(C(C)(C)C)cc(C(C)(C)C)c2)ccc1C(=O)O
API: POST /compare with P and Q ; response names the item with higher fold change (FC). Choose, then provide that item's label.
P

Ref: ChEMBL document CHEMBL4304816
